system: WPMY1-TUBA1B-RELA; assay: phenotypically active (imaging signature differs from DMSO and reproducible) at any of 0.3-9 uM (binary (1 = active, 0 = inactive)); higher = active; settings: treatment time: 24 h
Counter-ions that a name gives are not always drawn.
Would you mind telling me the reported phenotypically active of each entry?
Lab note: record the figure alone, no unit after it.

**Query** Give phenotypically active (WPMY1-TUBA1B-RELA) of the following compound: C[C@H]1[C@H](C)CC[C@]2(C(=O)O)CC[C@]3(C)C(=CC[C@@H]4[C@@]5(C)CC[C@H](O)C(C)(C)[C@@H]5CC[C@]43C)[C@H]12 [Ursolic acid]
**Result** 0

**Query** Entry to check: CCN1/C(=C/C(C)=O)Sc2ccc(O)cc21
**Result** 0

**Query** What about CC(C)CCN1c2nc(Nc3cc(F)c(O)c(F)c3)ncc2N(C)C(=O)C1C (stereo not drawn) ?
**Result** 1

**Query** Entry to check: O=C(O)[C@H]1CCCC[C@H]1C(=O)N1CCc2ccccc2[C@H]1CN1C(=O)c2ccccc2C1=O
**Result** 0

**Query** // query: CC(=O)Nc1ccc(C(=O)Nc2ccccc2N)cc1
**Result** 1

**Query** And what about the compound NCCNS(=O)(=O)c1ccc(Cl)c2ccncc12 [CKI 7 dihydrochloride] ?
**Result** 0

**Query** Next record, please: CCOC(=O)[C@H](CCc1ccccc1)N[C@@H](C)C(=O)N1[C@H](C(=O)O)C[C@@H]2CCC[C@@H]21 [ramipril]
**Result** 0

**Query** What do you have for CC(C(=O)O)c1cccc(C(=O)c2ccccc2)c1 (stereo not drawn) [ketoprofen] ?
**Result** 0

**Query** Check CCOC(=O)c1ccc(N2NC(=O)/C(=C/c3ccc([N+](=O)[O-])o3)C2=O)cc1 too.
**Result** 0

**Query** Next: CC(C)(C)c1cnc(CSc2cnc(NC(=O)C3CCNCC3)s2)o1
**Result** 1

**Query** Same read-out for C=C[C@H]1CN2CC[C@H]1C[C@@H]2[C@@H](O)c1ccnc2ccc(OC)cc12 [Quinidine hydrochloride monohydrate] ?
**Result** 0

**Query** Please give the result for CC1(CN2CCC(n3c(=O)[nH]c4ccccc43)CC2)OCc2ccccc2-n2cccc21 (stereo not drawn) too.
**Result** 0

**Query** Moving on to the next compound: Oc1cccc(-c2nc(N3CCOCC3)c3oc4ncccc4c3n2)c1 [PI 103 hydrochloride]
**Result** 1

**Query** And then CC/C(=C(\CC)c1ccc(O)c(CN(CC)CC)c1)c1ccc(O)c(CN(CC)CC)c1 , what is it?
**Result** 1

**Query** Please give the result for CC(C)NCC(O)c1ccc(NS(C)(=O)=O)cc1 (stereo not drawn) [sotalol] too.
**Result** 0

**Query** Try the compound OCC(CO)N[C@H]1C[C@](O)(CO)[C@@H](O)[C@H](O)[C@H]1O [Voglibose]
**Result** 0

**Query** Now consider COc1ccc([C@H]2CNC(=O)C2)cc1OC1CCCC1 [(S)-(+)-Rolipram] .
**Result** 0

**Query** Queued: CN(C)CC(=O)N1CCC[C@@H](n2nc(-c3ccc(Oc4ccccc4)cc3)c3c(N)ncnc32)C1
**Result** 1
